System: compound 48/80-induced lethality
Assay: Protection of rats from compound 48/80-induced lethality
Type: in vivo, rat (male, inbred Wistar strain)
Details: Rattus norvegicus; rats treated subcutaneously or orally 1 hour before compound 48/80 0.5 mg/kg intravenously; 50% of animals protected; survival after 4 hours; read-out: Compound 48/80 lethality test in rats-ED50
Below: a set of entries, each annotated with reported ED50.
Please state the figure in mg/kg; there is no need to write the unit.

Problem: Item under review: CCOCCn1c(NC2CCN(CCOc3ncccn3)CC2)nc2cccnc21 . Reported ED50?
Result: 0.02

Problem: GET /values?readout=ED50&item= CCOCCn1c(CC2CCN(CCn3c(=O)[nH]c4ccccc43)CC2)nc2cccnc21
Result: 0.02

Problem: Return reported ED50; argument: CCOCCn1c(NC2CCN(CCCOc3ccc(F)cc3)CC2)nc2cccnc21
Result: 0.04

Turning to the following molecule.
Problem: Which ED50 is listed for CCOCCn1c(NC2CCN(CCn3c(=O)[nH]c4ccccc4c3=O)CC2)nc2cccnc21 ?
Result: 0.04
